# assay.details: clinical
# test.parameters: human, in vivo, 10 mg
# Protocol: The phase I/IIa study was designed to evaluate safety and tolerability, pharmacokinetics (PK), food effect, and antiviral activity with regard to the Compound. The key safety parameters that were evaluated in the trial include adverse events (AEs), physical examination, vital signs, 12-lead electrocardiogram (ECG), and standard safety laboratory tests. The key antiviral activity parameters that were evaluated in the trial include changes in plasma HCV RNA and emergence of resistance mutations. […]
recorded.endpoint: Cmax (ng/mL)
Output spec: scalar in ng/mL, unitless text.

Entry COC(=O)N[C@H](C(=O)N1CCC[C@H]1c1nc2cc(-c3csc4c(-c5ccc(-c6cnc([C@@H]7CCCN7C(=O)[C@H](NC(=O)OC)c7ccccc7)[nH]6)cc5)csc34)ccc2[nH]1)C(C)C [the Compound] , Cmax reported as 9
